# TESTED TARGET: AEA-DA lipid probe targets in Neuro2a cells (Mus musculus, UniProt Q9Z0V7)
# Sequence (Q9Z0V7 whole entry): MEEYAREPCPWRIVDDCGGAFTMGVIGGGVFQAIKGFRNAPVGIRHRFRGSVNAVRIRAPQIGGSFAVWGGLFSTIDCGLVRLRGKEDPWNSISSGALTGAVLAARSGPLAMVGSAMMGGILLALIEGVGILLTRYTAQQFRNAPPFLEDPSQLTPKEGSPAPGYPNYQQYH
# CONDITION CONTEXT: competitor 25 μM
Overview of reported SILAC ratio, Timm17b across a group of compounds:
API doc: respond with a numeric literal and nothing else, no unit.

{"COMPOUND": "O=C(/C=C/c1cccnc1)NCCCCC1CCN(C(=O)c2ccccc2)CC1 [FK-866, reference compound]", "SILAC ratio, Timm17b": 1.2}
{"COMPOUND": "C=CCN(C)CCCCCCOc1ccc(C(=O)c2ccc(Br)cc2)c(F)c1 [Ro 48-8071, reference compound]", "SILAC ratio, Timm17b": 2.8}

Q: Value lookup for SILAC ratio, Timm17b; key = "CN1CCN(C(=O)c2[nH]c3ccc([N+](=O)[O-])cc3c2-c2ccccc2)CC1"
Ans: 1.5

Q: Report SILAC ratio, Timm17b for "CN1CCN(C(=O)c2c(-c3ccccc3)c3cc([N+](=O)[O-])ccc3n2C)CC1" please.
Ans: 1.8

====

# TESTED TARGET: AEA-DA lipid probe targets in Neuro2a cells (Mus musculus, UniProt Q9ES97)
# Sequence (Q9ES97 whole entry): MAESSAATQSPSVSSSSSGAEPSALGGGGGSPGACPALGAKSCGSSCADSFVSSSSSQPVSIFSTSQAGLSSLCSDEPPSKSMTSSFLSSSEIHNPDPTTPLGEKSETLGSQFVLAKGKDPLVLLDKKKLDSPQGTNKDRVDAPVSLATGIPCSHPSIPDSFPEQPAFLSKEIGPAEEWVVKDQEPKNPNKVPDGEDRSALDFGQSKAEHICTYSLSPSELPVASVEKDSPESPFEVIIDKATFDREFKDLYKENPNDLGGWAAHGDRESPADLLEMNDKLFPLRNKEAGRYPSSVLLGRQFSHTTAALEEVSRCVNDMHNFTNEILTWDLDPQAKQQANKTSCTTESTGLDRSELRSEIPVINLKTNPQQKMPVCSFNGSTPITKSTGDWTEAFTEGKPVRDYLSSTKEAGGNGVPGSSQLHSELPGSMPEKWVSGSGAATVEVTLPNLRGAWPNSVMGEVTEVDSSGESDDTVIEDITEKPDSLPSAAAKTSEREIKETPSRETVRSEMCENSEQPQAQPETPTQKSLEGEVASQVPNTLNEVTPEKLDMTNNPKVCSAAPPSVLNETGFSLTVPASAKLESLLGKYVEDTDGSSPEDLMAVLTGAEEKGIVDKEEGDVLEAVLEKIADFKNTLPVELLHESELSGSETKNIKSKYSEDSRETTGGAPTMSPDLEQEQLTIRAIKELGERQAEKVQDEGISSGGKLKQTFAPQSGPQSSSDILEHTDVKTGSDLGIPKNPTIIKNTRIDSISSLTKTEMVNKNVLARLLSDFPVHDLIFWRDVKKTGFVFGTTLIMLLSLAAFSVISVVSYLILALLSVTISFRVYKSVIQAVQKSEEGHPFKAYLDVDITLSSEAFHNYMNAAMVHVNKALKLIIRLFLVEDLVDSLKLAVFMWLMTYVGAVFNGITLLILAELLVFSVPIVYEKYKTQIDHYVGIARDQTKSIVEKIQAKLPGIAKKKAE
# CONDITION CONTEXT: competitor 25 μM
# reported SILAC ratio, Rtn3; entries follow
Enter the number alone.

{"COMPOUND": "CN1CCN(C(=O)c2c(-c3ccccc3)c3cc([N+](=O)[O-])ccc3n2C)CC1", "MEASURED ENDPOINT": "SILAC ratio, Rtn3", "TEST VALUE": 1.3}

Q: What SILAC ratio, Rtn3 value was documented for this compound, O=C(/C=C/c1cccnc1)NCCCCC1CCN(C(=O)c2ccccc2)CC1 [FK-866, reference compound] ?
Ans: 1.1

Q: Dear colleague, I am looking for the recorded SILAC ratio, Rtn3 of the following compound: C=CCN(C)CCCCCCOc1ccc(C(=O)c2ccc(Br)cc2)c(F)c1 [Ro 48-8071, reference compound]
Ans: 1.2

Q: Recorded SILAC ratio, Rtn3 for "CN1CCN(C(=O)c2[nH]c3ccc([N+](=O)[O-])cc3c2-c2ccccc2)CC1" , please?
Ans: 1.4

====

Recorded SILAC ratio Hars values for a group of compounds are listed next.
# TESTED TARGET: AEA-DA lipid probe targets in Neuro2a cells (Mus musculus, UniProt Q61035)
# Sequence (Q61035 whole entry): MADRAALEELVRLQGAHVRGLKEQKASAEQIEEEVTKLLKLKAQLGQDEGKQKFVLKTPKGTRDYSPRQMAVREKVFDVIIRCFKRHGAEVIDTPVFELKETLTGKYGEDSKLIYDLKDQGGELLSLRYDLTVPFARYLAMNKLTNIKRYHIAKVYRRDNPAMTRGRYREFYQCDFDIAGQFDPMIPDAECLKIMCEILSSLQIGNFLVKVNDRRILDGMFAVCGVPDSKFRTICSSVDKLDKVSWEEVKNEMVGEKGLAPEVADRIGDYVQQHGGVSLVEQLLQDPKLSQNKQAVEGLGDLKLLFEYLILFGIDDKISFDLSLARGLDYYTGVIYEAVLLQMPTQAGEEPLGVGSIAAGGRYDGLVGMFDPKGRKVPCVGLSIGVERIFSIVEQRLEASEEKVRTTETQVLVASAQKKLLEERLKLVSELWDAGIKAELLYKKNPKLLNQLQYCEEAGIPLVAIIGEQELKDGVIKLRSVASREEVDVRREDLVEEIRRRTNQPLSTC
# CONDITION CONTEXT: competitor 25 μM
The reply should be a number, written without any unit.

{"COMPOUND": "CN1CCN(C(=O)c2[nH]c3ccc([N+](=O)[O-])cc3c2-c2ccccc2)CC1", "SILAC ratio Hars": 1.5}

Q: Look up SILAC ratio Hars: O=C(/C=C/c1cccnc1)NCCCCC1CCN(C(=O)c2ccccc2)CC1 [FK-866, reference compound]
Ans: 1.3

Q: Returns the measured SILAC ratio Hars for the input compound. Input: "CN1CCN(C(=O)c2c(-c3ccccc3)c3cc([N+](=O)[O-])ccc3n2C)CC1"
Ans: 1.5

Q: I would be grateful if you could share the reported SILAC ratio Hars for C=CCN(C)CCCCCCOc1ccc(C(=O)c2ccc(Br)cc2)c(F)c1 [Ro 48-8071, reference compound] .
Ans: 0.9

====

# TESTED TARGET: AEA-DA lipid probe targets in Neuro2a cells (Mus musculus, UniProt Q8BJ03)
# Sequence (Q8BJ03 whole entry): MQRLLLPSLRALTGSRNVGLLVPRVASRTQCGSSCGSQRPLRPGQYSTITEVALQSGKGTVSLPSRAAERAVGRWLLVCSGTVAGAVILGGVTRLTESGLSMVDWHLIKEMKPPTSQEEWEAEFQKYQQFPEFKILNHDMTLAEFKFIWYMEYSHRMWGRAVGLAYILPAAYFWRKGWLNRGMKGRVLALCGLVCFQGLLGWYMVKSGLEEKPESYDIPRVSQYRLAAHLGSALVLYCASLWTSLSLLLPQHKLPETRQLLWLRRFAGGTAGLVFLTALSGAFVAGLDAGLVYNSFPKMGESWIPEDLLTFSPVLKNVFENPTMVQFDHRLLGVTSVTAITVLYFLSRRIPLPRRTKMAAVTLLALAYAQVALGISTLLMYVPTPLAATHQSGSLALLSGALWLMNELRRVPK
# CONDITION CONTEXT: protein Cox15; Neuro2a cells; competitor 25 μM
MEASURED ENDPOINT: SILAC ratio (AEA-DA competition)

Answered examples (3):
{"MOLECULE": "CN1CCN(C(=O)c2c(-c3ccccc3)c3cc([N+](=O)[O-])ccc3n2C)CC1 [KML110]", "SILAC ratio (AEA-DA competition)": 1.1}
{"MOLECULE": "C=CCN(C)CCCCCCOc1ccc(C(=O)c2ccc(Br)cc2)c(F)c1 [Ro 48-8071, reference compound]", "SILAC ratio (AEA-DA competition)": 0.8}
{"MOLECULE": "CN1CCN(C(=O)c2[nH]c3ccc([N+](=O)[O-])cc3c2-c2ccccc2)CC1 [MJN228]", "SILAC ratio (AEA-DA competition)": 1.0}

# input for lookup
Q: For the molecule O=C(/C=C/c1cccnc1)NCCCCC1CCN(C(=O)c2ccccc2)CC1 [FK-866, reference compound] , what SILAC ratio (AEA-DA competition) is on record?
Ans: 0.9

====

# TESTED TARGET: AEA-DA lipid probe targets in Neuro2a cells (Mus musculus, UniProt Q6PD26)
# Sequence (Q6PD26 1-555): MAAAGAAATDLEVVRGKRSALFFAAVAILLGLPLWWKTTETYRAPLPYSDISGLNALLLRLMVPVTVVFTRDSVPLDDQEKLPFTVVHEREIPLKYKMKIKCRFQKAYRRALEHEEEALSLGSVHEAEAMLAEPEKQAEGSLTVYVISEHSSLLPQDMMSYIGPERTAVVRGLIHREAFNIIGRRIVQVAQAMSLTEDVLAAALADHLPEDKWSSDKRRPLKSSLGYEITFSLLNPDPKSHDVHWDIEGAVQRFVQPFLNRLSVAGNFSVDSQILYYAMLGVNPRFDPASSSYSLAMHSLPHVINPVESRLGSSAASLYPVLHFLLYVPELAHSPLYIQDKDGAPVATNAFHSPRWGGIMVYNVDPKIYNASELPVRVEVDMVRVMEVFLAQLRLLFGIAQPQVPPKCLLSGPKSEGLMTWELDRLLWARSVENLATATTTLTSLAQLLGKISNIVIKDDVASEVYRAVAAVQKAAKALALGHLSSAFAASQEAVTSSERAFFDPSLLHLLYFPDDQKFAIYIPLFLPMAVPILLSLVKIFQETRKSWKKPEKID
# CONDITION CONTEXT: competitor 25 μM
Documented SILAC ratio Pigs across a set of compounds
Give only the figure.

{"COMPOUND": "CN1CCN(C(=O)c2[nH]c3ccc([N+](=O)[O-])cc3c2-c2ccccc2)CC1", "SILAC ratio Pigs": 1.6}

Q: State the recorded SILAC ratio Pigs for this entry: O=C(/C=C/c1cccnc1)NCCCCC1CCN(C(=O)c2ccccc2)CC1 [FK-866, reference compound]
Ans: 1.3

Q: // SILAC ratio Pigs lookup, key: "CN1CCN(C(=O)c2c(-c3ccccc3)c3cc([N+](=O)[O-])ccc3n2C)CC1"
Ans: 1.2

Q: So what does the record say about SILAC ratio Pigs for C=CCN(C)CCCCCCOc1ccc(C(=O)c2ccc(Br)cc2)c(F)c1 [Ro 48-8071, reference compound] ?
Ans: 1.1

====

Quick list: SILAC ratio Acsl4 per entry.
# TESTED TARGET: AEA-DA lipid probe targets in Neuro2a cells (Mus musculus)
# CONDITION CONTEXT: competitor 25 μM
Please give only the number in your answer, with no unit.

# annotated cases, reported SILAC ratio Acsl4 shown
{"COMPOUND": "CN1CCN(C(=O)c2c(-c3ccccc3)c3cc([N+](=O)[O-])ccc3n2C)CC1", "TESTED TARGET": "AEA-DA lipid probe targets in Neuro2a cells (Mus musculus)", "SILAC ratio Acsl4": 1.3}
{"COMPOUND": "C=CCN(C)CCCCCCOc1ccc(C(=O)c2ccc(Br)cc2)c(F)c1 [Ro 48-8071, reference compound]", "TESTED TARGET": "AEA-DA lipid probe targets in Neuro2a cells (Mus musculus)", "SILAC ratio Acsl4": 1.1}
{"COMPOUND": "CN1CCN(C(=O)c2[nH]c3ccc([N+](=O)[O-])cc3c2-c2ccccc2)CC1", "TESTED TARGET": "AEA-DA lipid probe targets in Neuro2a cells (Mus musculus)", "SILAC ratio Acsl4": 1.4}

Let's switch to this compound now.
Q: Lab note: need SILAC ratio Acsl4 for O=C(/C=C/c1cccnc1)NCCCCC1CCN(C(=O)c2ccccc2)CC1 [FK-866, reference compound] on AEA-DA lipid probe targets in Neuro2a cells (Mus musculus), anyone have it?
Ans: 1.3

====

Each entry below carries its reported SILAC ratio Tmem206.
# TESTED TARGET: AEA-DA lipid probe targets in Neuro2a cells (Mus musculus, UniProt Q9D771)
# Sequence (Q9D771 whole entry): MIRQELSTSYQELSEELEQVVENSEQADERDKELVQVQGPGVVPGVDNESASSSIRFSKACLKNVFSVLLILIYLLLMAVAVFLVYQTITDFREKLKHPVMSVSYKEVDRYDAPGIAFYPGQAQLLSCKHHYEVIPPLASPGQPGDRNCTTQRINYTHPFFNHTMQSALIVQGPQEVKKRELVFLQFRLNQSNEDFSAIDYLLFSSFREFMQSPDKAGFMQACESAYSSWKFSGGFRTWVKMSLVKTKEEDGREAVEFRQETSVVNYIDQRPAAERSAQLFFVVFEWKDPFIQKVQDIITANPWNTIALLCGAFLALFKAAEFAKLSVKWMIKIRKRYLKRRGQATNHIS
# CONDITION CONTEXT: competitor 25 μM
Just the number, please.

As a guide, the following entries are already answered.
{"COMPOUND": "O=C(/C=C/c1cccnc1)NCCCCC1CCN(C(=O)c2ccccc2)CC1 [FK-866, reference compound]", "TEST VALUE": 0.9}
{"COMPOUND": "CN1CCN(C(=O)c2c(-c3ccccc3)c3cc([N+](=O)[O-])ccc3n2C)CC1 [KML110]", "TEST VALUE": 1.2}
{"COMPOUND": "CN1CCN(C(=O)c2[nH]c3ccc([N+](=O)[O-])cc3c2-c2ccccc2)CC1 [MJN228]", "TEST VALUE": 1.3}

Proceeding to the next compound to report its SILAC ratio Tmem206.
Q: Record request: SILAC ratio Tmem206 value, item C=CCN(C)CCCCCCOc1ccc(C(=O)c2ccc(Br)cc2)c(F)c1 [Ro 48-8071, reference compound]
Ans: 0.6
